assay: Metabolic stability in mouse liver microsomes (MLM); assay type: in vitro ADME; conditions: 1 μM compound, 0.5 mg/mL MLM, 1 mM NADPH, 37° C., read-out: half-life (t1/2) towards MLM
property_label: half-life at 1 µM

Challenge: Please give the measured half-life at 1 µM for this compound: `CC(C)Oc1ccc(-c2ccc(CNc3cc(-c4cn[nH]c4)nc(C(F)(F)F)c3)nc2)cc1`
Response given: > 1.67 h

Challenge: Then this compound: `CC(C)Oc1ccc(-c2ccc(CNc3cc(-c4cn[nH]c4)nc(C(F)(F)F)c3)nc2)cc1Cl`
Response given: > 1.67 h

Challenge: Would you kindly repeat that for `CC(C)Oc1ccc(-c2ncc(CNc3cc(-n4ccnc4)nc(C(F)(F)F)c3)cn2)cc1Cl` ?
Response given: > 1.67 h

Challenge: Also `CC(C)Oc1ccc(-n2cc(CNc3cc(-n4cncn4)nc(C(F)(F)F)c3)nn2)cc1` ?
Response given: 1.02 to 1.67 h

Challenge: Okay, and `N#Cc1cc(-c2ncc(CNc3cc(-n4cncn4)nc(C(F)(F)F)c3)cn2)ccc1Cl` ?
Response given: > 1.67 h

====

molecular target: PqsR (Pseudomonas aeruginosa, UniProt Q9I4X0); construct: transfected with pEAL08-2 plasmid encoding pqsR under control of promoter tac; assay: PqsR reporter gene assay in E. coli (β-galactosidase)
Sequence (Q9I4X0 whole entry): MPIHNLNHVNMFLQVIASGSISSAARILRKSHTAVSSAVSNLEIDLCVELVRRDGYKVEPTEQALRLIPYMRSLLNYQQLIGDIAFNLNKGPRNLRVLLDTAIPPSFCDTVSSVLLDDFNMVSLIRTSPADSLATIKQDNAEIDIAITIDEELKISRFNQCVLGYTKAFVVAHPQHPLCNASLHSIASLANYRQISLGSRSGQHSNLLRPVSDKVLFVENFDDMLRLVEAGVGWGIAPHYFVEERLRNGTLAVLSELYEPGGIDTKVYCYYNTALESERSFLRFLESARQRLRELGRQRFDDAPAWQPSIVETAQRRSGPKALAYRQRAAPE
Exercise: state measured IC50 for each of the compounds provided.

Challenge: Under PqsR (Pseudomonas aeruginosa, UniProt Q9I4X0): IC50 value of `FC(F)(F)c1cc(SCc2nc3cc(Oc4ccccc4)ccc3[nH]2)cc(-n2cncn2)n1` ?
Response given: ≤ 50 nM

Challenge: Lookup `CC(C)Oc1ccc(-c2ncc(CNc3cc(-n4cncn4)nc(C(F)(F)F)c3)s2)cc1`
Response given: 51 to 250 nM

Challenge: Try this compound too: `CC(C)Oc1ccc(-c2ncc(CNc3cc(-c4cn[nH]c4)nc(C(F)(F)F)c3)cn2)cc1Cl`
Response given: ≤ 50 nM

Challenge: // query: `Cn1cc(-c2cc(NCc3cn(-c4ccc(Oc5ccccc5)cc4)nn3)cc(C(F)(F)F)n2)cn1`
Response given: ≤ 50 nM

Challenge: Param item: `CC(C)Oc1ccc(-c2ncc(CNc3cc(-n4ccnc4)nc(C(F)(F)F)c3)s2)cc1Cl`
Response given: 51 to 250 nM

Challenge: Please give the result for `CC(C)Oc1ccc(-c2ncc(CNc3cc(C#N)nc(-c4cn[nH]c4)c3)s2)cc1` too.
Response given: ≤ 50 nM

Challenge: Try this compound next: `CC(C)Oc1ccc(-n2cc(CNc3cc(-c4cn[nH]c4)nc(C(F)(F)F)c3)nn2)cc1Cl`
Response given: ≤ 50 nM

Challenge: One more compound: `Cn1cc(-c2cc(SCc3nc4cc(Oc5ccccc5)ccc4[nH]3)cc(C(F)(F)F)n2)cn1`
Response given: 51 to 250 nM

====

experiment: Kinetic turbidimetric aqueous solubility; type: physicochemical; details: aqueous buffer, kinetic from dmso stock; PBS buffer, final DMSO 2%, absorbance 620 nm; read-out: Kinetic Turbidimetric Aqueous Solubility at room temperature for 5 min
Hi there, I'd appreciate the recorded solubility at 5 min for every entry that follows.

Challenge: What value of solubility at 5 min has been reported for the following compound? `CC(C)Oc1ccc(-n2cc(CNc3cc(-c4cn[nH]c4)nc(C(F)(F)F)c3)nn2)cc1Cl`
Response given: > 25 µM

Challenge: What about `CC(C)Oc1ccc(-c2ccc(CNc3cc(-c4cn[nH]c4)nc(C(F)(F)F)c3)nc2)cc1Cl` ?
Response given: > 10 µM

Challenge: Entry `FC(F)(F)c1cc(NCc2cnc(-c3ccc(Cl)c(Cl)c3)nc2)cc(-c2cn[nH]c2)n1` please
Response given: > 10 µM

Challenge: Next compound up: `CC(C)Oc1ccc(-c2ncc(CNc3cc(-c4cc[nH]n4)nc(C(F)(F)F)c3)s2)cc1`
Response given: > 10 µM

Challenge: Try this compound too: `CC(C)Oc1ccc(-n2cc(CNc3cc(-c4cn[nH]c4)nc(C(F)(F)F)c3)nn2)cc1`
Response given: > 25 µM

Challenge: Moving on to `CC(C)Oc1ccc(-c2ncc(CNc3cc(-c4cn[nH]c4)nc(C(F)(F)F)c3)cn2)cc1`
Response given: > 25 µM

Challenge: Lookup `Nc1ccc(Oc2ccc(-c3ncc(CNc4cc(-c5cn[nH]c5)nc(C(F)(F)F)c4)cn3)cc2)cc1`
Response given: > 10 µM

Challenge: `CC(C)Oc1ccc(-c2ncc(CNc3cc(-c4ccc(C#N)nc4)nc(C(F)(F)F)c3)s2)cc1` ?
Response given: > 25 µM

Challenge: Same thing, different compound: `FC(F)(F)c1cc(NCc2cn(-c3ccc(Oc4ccccc4)cc3)nn2)cc(-n2ccnc2)n1`
Response given: > 25 µM

Challenge: Request: `FC(F)(F)c1cc(NCc2nc3cc(Oc4ccccc4)ccc3[nH]2)cc(-n2ccnc2)n1`
Response given: > 10 µM

Challenge: Also `CC(C)Oc1ccc(-c2cnc(CNc3cc(-c4cn[nH]c4)nc(C(F)(F)F)c3)cn2)cc1Cl` , if possible.
Response given: > 25 µM

Challenge: Also check `CC(C)Oc1ccc(-c2ncc(CNc3cc(-n4cncn4)nc(C(F)(F)F)c3)s2)cc1`
Response given: > 50 µM

Challenge: Similarly, `CC(C)Oc1ccc(-c2ncc(CNc3cc(-c4nn[nH]n4)nc(C(F)(F)F)c3)s2)cc1` ?
Response given: ≥ 100 µM

Challenge: Repeat for the following compound: `N#Cc1cc(-c2ncc(CNc3cc(-n4cncn4)nc(C(F)(F)F)c3)cn2)ccc1Cl`
Response given: > 10 µM

Challenge: How about `Cn1cc(-c2cc(NCc3cn(-c4ccc(Oc5ccccc5)cc4)nn3)cc(C(F)(F)F)n2)cn1` ?
Response given: > 25 µM

Challenge: Consider next the compound `Fc1cc(-c2ncc(CNc3cc(-c4cn[nH]c4)nc(C(F)(F)F)c3)cn2)ccc1Cl` in the same way.
Response given: > 10 µM

====

Please respond with reported half-life at 1 µM for every item in the list.
assay: Metabolic stability in mouse liver microsomes (MLM); type: in vitro ADME; details: 1 μM compound, 0.5 mg/mL MLM, 1 mM NADPH, 37° C., read-out: half-life (t1/2) towards MLM

Challenge: Find the recorded half-life at 1 µM belonging to `CC(C)Oc1ccc(-c2ncc(CNc3cc(-c4cn[nH]c4)nc(C(F)(F)F)c3)cn2)cc1Cl` and report it.
Response given: > 1.67 h

Challenge: Can you check `CC(C)Oc1ccc(-c2ncc(CNc3cc(-c4cn[nH]c4)nc(C(F)(F)F)c3)cn2)cc1` next?
Response given: 1.02 to 1.67 h

Challenge: Next: `CC(C)Oc1ccc(-c2ncc(CNc3cc(C#N)nc(-c4cn[nH]c4)c3)s2)cc1`
Response given: 0.5 to 1 h

Challenge: Next compound: `FC(F)(F)c1cc(NCc2cnc(-c3ccc(Oc4ccc(Cl)cc4)cc3)nc2)cc(-c2cn[nH]c2)n1`
Response given: > 1.67 h

Challenge: Same question, `CC(C)Oc1ccc(-c2ncc(CNc3cc(-n4ccnc4)nc(C(F)(F)F)c3)s2)cc1` this time
Response given: 0.5 to 1 h

====

assay: Metabolic stability in mouse liver microsomes (MLM); type: in vitro ADME; details: 1 μM compound, 0.5 mg/mL MLM, 1 mM NADPH, 37° C., read-out: half-life (t1/2) towards MLM
I'd be grateful if you could share measured half-life at 1 µM for these entries.

Challenge: Query (compound): `CC(C)Oc1ccc(-c2ccc(CNc3cc(-c4cn[nH]c4)nc(C(F)(F)F)c3)cn2)cc1Cl` ; field requested: half-life at 1 µM
Response given: > 1.67 h

Challenge: Request: `FC(F)(F)Oc1ccc(-c2ncc(CNc3cc(-c4cn[nH]c4)nc(C(F)(F)F)c3)cn2)cc1`
Response given: > 1.67 h

Challenge: Same lookup for `Cn1cc(-c2cc(NCc3cn(-c4ccc(Oc5ccccc5)cc4)nn3)cc(C(F)(F)F)n2)cn1` , please.
Response given: 0.5 to 1 h

Challenge: Now this one: `CC(C)Oc1ccc(-c2ncc(CNc3cc(-c4cncs4)nc(C(F)(F)F)c3)cn2)cc1`
Response given: > 1.67 h

Challenge: Same question, `FC(F)(F)c1cc(NCc2nc3cc(Oc4ccccc4)ccc3[nH]2)cc(-n2ccnc2)n1` this time
Response given: 0.5 to 1 h

Challenge: And the next one, `FC(F)(F)c1cc(NCc2cnc(-c3ccc(Cl)cc3)nc2)cc(-c2cn[nH]c2)n1` ?
Response given: 1.02 to 1.67 h

Challenge: Please answer likewise for `Fc1ccccc1Oc1ccc(-c2ncc(CNc3cc(-c4cn[nH]c4)nc(C(F)(F)F)c3)cn2)cc1`
Response given: > 1.67 h

Challenge: Cool, now `CC(C)Oc1ccc(-c2ncc(CNc3cc(-n4ccnc4)nc(C(F)(F)F)c3)s2)cc1Cl`
Response given: > 1.67 h

Challenge: Same for `CC(C)Oc1ccc(-c2cnc(CNc3cc(-n4cncn4)nc(C(F)(F)F)c3)nc2)cc1`
Response given: > 1.67 h

Challenge: Also, `CC(C)Oc1ccc(-c2ncc(CNc3cc(-n4cncn4)nc(C(F)(F)F)c3)cn2)cc1Cl` please.
Response given: 1.02 to 1.67 h

Challenge: Continue with `CC(C)Oc1ccc(-c2ncc(CNc3cc(-c4ccc(C#N)nc4)nc(C(F)(F)F)c3)s2)cc1`
Response given: > 1.67 h

Challenge: Entry `CC(C)Oc1ccc(-c2cnc(CNc3cc(-n4ccnc4)nc(C(F)(F)F)c3)nc2)cc1` please
Response given: > 1.67 h

Challenge: And `FC(F)(F)c1cc(NCc2cn(-c3ccc(Oc4ccccc4)cc3)nn2)cc(-n2cncn2)n1` ?
Response given: 1.02 to 1.67 h

Challenge: Another compound to look at: `CC(C)Oc1ccc(-c2ncc(CNc3cc(-c4nn[nH]n4)nc(C(F)(F)F)c3)s2)cc1`
Response given: > 1.67 h

Challenge: Same question, `CC(C)Oc1ccc(-c2cnc(CNc3cc(-c4cn[nH]c4)nc(C(F)(F)F)c3)cn2)cc1Cl` this time
Response given: > 1.67 h

Challenge: Entry to check: `Fc1cccc(Oc2ccc(-c3ncc(CNc4cc(-c5cn[nH]c5)nc(C(F)(F)F)c4)cn3)cc2)c1`
Response given: > 1.67 h

Challenge: Query `CC(C)Oc1ccc(-c2ncc(CNc3cc(-n4ccnc4)nc(C(F)(F)F)c3)cn2)cc1` next
Response given: > 1.67 h

Challenge: What about this compound? `Fc1ccccc1Oc1ccc(-n2cc(CNc3cc(-c4cn[nH]c4)nc(C(F)(F)F)c3)nn2)cc1`
Response given: 0.5 to 1 h

Challenge: How about `CC(C)Oc1ccc(-c2ncc(CNc3cc(-c4cnc[nH]4)nc(C(F)(F)F)c3)cn2)cc1` ?
Response given: > 1.67 h
